biological target: UniProt:P00918
quantity: log10 of Ki (log10 of the value in nM)
Scale: log10; quantity: Ki; unit before log: nM

Task item: Give reported log10 of Ki value for NS(=O)(=O)c1ccc(NC(=O)c2c(F)c(F)cc(F)c2F)c(F)c1
Reply: 0.18

Task item: // Input: NS(=O)(=O)c1ccc(NS(=O)(=O)c2ccc(NC(=O)c3c(F)c(F)cc(F)c3F)cc2)cc1 . Output its log10 of Ki only.
Reply: 1.28

Task item: Supply measured log10 of Ki of NS(=O)(=O)c1ccc(NC(=O)c2c(F)c(F)cc(F)c2F)c(Cl)c1 in your reply.
Reply: 1.88

Task item: Note down log10 of Ki recorded for NS(=O)(=O)c1ccc(CCNS(=O)(=O)c2ccc(NC(=O)c3c(F)c(F)cc(F)c3F)cc2)cc1
Reply: 1.11

Task item: For the molecule NS(=O)(=O)c1nnc(NS(=O)(=O)c2c(F)c(F)cc(F)c2F)s1 , give its measured log10 of Ki value.
Reply: -0.15

Task item: Given NS(=O)(=O)c1ccccc1NC(=O)c1c(F)c(F)cc(F)c1F , respond with its log10 of Ki.
Reply: 1.58

Task item: Let me know recorded log10 of Ki for NS(=O)(=O)c1ccc(NC(=O)c2c(F)c(F)cc(F)c2F)cc1 , thanks.
Reply: 1.20

Task item: Report log10 of Ki, nothing else, for this molecule: NS(=O)(=O)c1ccc(NC(=O)c2c(F)c(F)cc(F)c2F)c(Br)c1
Reply: 1.92

Task item: Fill in reported log10 of Ki for this entry: NS(=O)(=O)c1ccc(CCNS(=O)(=O)c2c(F)c(F)cc(F)c2F)cc1
Reply: 0.95

Task item: Input NS(=O)(=O)c1ccc(CCNC(=O)c2c(F)c(F)cc(F)c2F)cc1 , output reported log10 of Ki.
Reply: 1.08

----------
For each record, write down the corresponding Ki.
Could you give me the number in nM? Just the number is fine.

Task item: For Carbonic anhydrase 2 (Homo sapiens, UniProt P00918), give Ki of the listed molecule: NS(=O)(=O)c1ccc(CNS(=O)(=O)c2c(F)c(F)cc(F)c2F)cc1
Reply: 12

Task item: // fetch Ki for NS(=O)(=O)c1ccc(CNC(=O)c2c(F)c(F)cc(F)c2F)cc1 ; system: Carbonic anhydrase 2 (Homo sapiens, UniProt P00918)
Reply: 13

Task item: Fill: Ki (Carbonic anhydrase 2 (Homo sapiens, UniProt P00918)) for this molecule NS(=O)(=O)c1cccc(NC(=O)c2c(F)c(F)cc(F)c2F)c1
Reply: 21

Task item: Enter recorded Ki with Carbonic anhydrase 2 (Homo sapiens, UniProt P00918) for NS(=O)(=O)c1ccc(CNS(=O)(=O)c2ccc(NC(=O)c3c(F)c(F)cc(F)c3F)cc2)cc1 here.
Reply: 15

----------
Give measured pKi for each item. Keep answers brief.
Reminder that pKi is minus the log10 of a molar concentration.

Task item: # return pKi of NS(=O)(=O)c1ccc(CNS(=O)(=O)c2c(F)c(F)cc(F)c2F)cc1 (system: Carbonic anhydrase 9 (Homo sapiens, UniProt Q16790))
Reply: 8.07

Task item: # lookup: Carbonic anhydrase 9 (Homo sapiens, UniProt Q16790) pKi, key = NS(=O)(=O)c1nnc(NC(=O)c2c(F)c(F)cc(F)c2F)s1
Reply: 7.90

Task item: Provide the reported pKi (system: Carbonic anhydrase 9 (Homo sapiens, UniProt Q16790)) for NS(=O)(=O)c1ccccc1NC(=O)c1c(F)c(F)cc(F)c1F
Reply: 8.02

Task item: Report its pKi with Carbonic anhydrase 9 (Homo sapiens, UniProt Q16790) as the test system: NS(=O)(=O)c1ccc(NC(=O)c2c(F)c(F)cc(F)c2F)c(Cl)c1
Reply: 7.80

Task item: Give pKi; test system Carbonic anhydrase 9 (Homo sapiens, UniProt Q16790); compound NS(=O)(=O)c1ccc(CCNS(=O)(=O)c2ccc(NC(=O)c3c(F)c(F)cc(F)c3F)cc2)cc1
Reply: 8.12

Task item: Report pKi under test system Carbonic anhydrase 9 (Homo sapiens, UniProt Q16790) for NS(=O)(=O)c1ccc(NC(=O)c2c(F)c(F)cc(F)c2F)c(F)c1 .
Reply: 7.62

Task item: Write down the reported pKi (system: Carbonic anhydrase 9 (Homo sapiens, UniProt Q16790)) of NS(=O)(=O)c1ccc(NC(=O)c2c(F)c(F)cc(F)c2F)c(Br)c1
Reply: 8.32

Task item: # assay system Carbonic anhydrase 9 (Homo sapiens, UniProt Q16790): give pKi of NS(=O)(=O)c1ccc(CCNS(=O)(=O)c2c(F)c(F)cc(F)c2F)cc1
Reply: 8.15

----------
quantity: pKi
Remember, pKi is on a log scale: it is -log10 of the molar concentration.

Task item: Supply pKi measured with Carbonic anhydrase 1 (Homo sapiens, UniProt P00915) for NS(=O)(=O)c1ccc(CNC(=O)c2c(F)c(F)cc(F)c2F)cc1 .
Sequence (P00915 whole entry): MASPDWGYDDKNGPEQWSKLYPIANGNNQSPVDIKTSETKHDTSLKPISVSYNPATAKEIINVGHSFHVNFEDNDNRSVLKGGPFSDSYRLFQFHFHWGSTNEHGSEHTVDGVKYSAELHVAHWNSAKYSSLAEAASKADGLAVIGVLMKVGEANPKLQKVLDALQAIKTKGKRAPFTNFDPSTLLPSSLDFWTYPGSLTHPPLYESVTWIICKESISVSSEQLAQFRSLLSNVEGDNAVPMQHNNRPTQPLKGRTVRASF
Reply: 6.01

Task item: Fetch value of pKi on Carbonic anhydrase 1 (Homo sapiens, UniProt P00915) for NS(=O)(=O)c1ccc(CCNC(=O)c2c(F)c(F)cc(F)c2F)cc1 .
Reply: 6.05

Task item: System Carbonic anhydrase 1 (Homo sapiens, UniProt P00915). Read-out pKi. Item NS(=O)(=O)c1ccc(CNS(=O)(=O)c2ccc(NC(=O)c3c(F)c(F)cc(F)c3F)cc2)cc1 . Report value.
Reply: 5.21

Task item: Specify the recorded pKi for NS(=O)(=O)c1ccc(NC(=O)c2c(F)c(F)cc(F)c2F)c(Br)c1 , system: Carbonic anhydrase 1 (Homo sapiens, UniProt P00915).
Reply: 5.73

Task item: Find pKi for NS(=O)(=O)c1ccc(CCNS(=O)(=O)c2c(F)c(F)cc(F)c2F)cc1 on Carbonic anhydrase 1 (Homo sapiens, UniProt P00915) and write it down.
Reply: 6.12

Task item: Name the value of pKi reported for NS(=O)(=O)c1ccc(NS(=O)(=O)c2ccc(NC(=O)c3c(F)c(F)cc(F)c3F)cc2)cc1 when tested on Carbonic anhydrase 1 (Homo sapiens, UniProt P00915).
Reply: 5.20

Task item: Please indicate recorded pKi of NS(=O)(=O)c1cccc(NC(=O)c2c(F)c(F)cc(F)c2F)c1 measured with Carbonic anhydrase 1 (Homo sapiens, UniProt P00915).
Reply: 5.77

Task item: Write down measured pKi (Carbonic anhydrase 1 (Homo sapiens, UniProt P00915)) for this compound. NS(=O)(=O)c1ccc(CNS(=O)(=O)c2c(F)c(F)cc(F)c2F)cc1
Reply: 6.07

----------
The compounds below have reported pKi for Carbonic anhydrase 1 (Homo sapiens, UniProt P00915).
Just the number, please; pKi means minus log10 of the concentration in mol/L.

Task item: Give reported pKi value for Cn1nc(S(N)(=O)=O)s/c1=N\C(=O)c1c(F)c(F)cc(F)c1F
Reply: 6.57

Task item: Tell me pKi reported for NS(=O)(=O)c1ccc(CCNS(=O)(=O)c2ccc(NC(=O)c3c(F)c(F)cc(F)c3F)cc2)cc1
Reply: 5.22

Task item: Specify measured pKi for NS(=O)(=O)c1ccc(NC(=O)c2c(F)c(F)cc(F)c2F)c(F)c1 .
Reply: 6.12

Task item: Tell me pKi reported for NS(=O)(=O)c1ccccc1NC(=O)c1c(F)c(F)cc(F)c1F
Reply: 5.82

Task item: Provide measured pKi value, entry: NS(=O)(=O)c1ccc(NC(=O)c2c(F)c(F)cc(F)c2F)c(Cl)c1
Reply: 5.97
